# Tested on: CRL-7250
# PROTOCOL: Cytotoxic Profiling of Annotated Libraries Using Quantitative High-Throughput Screening (AID 1296008); further: on the % scale 0 is the no-effect control and ±100 the full control effect
# TEST_CONTEXT: Five cell lines viability, CellTiter-Glo ATP luminescence, 48-72 h; stronger effect = lower value
Inconclusive results are not listed.
PROPERTY_MEASURED: max response (%)
Respond with the bare value in %.

Write max response of Clc1cc2c(NC3CCCC3)nnc(-c3ccncc3)c2cc1Cl ; system used: CRL-7250
-13.3

Fill: max response (CRL-7250) for this molecule C[C@@H]1O[C@@H](O[C@H]2[C@H](O[C@H]3[C@H](O[C@H]4CC[C@@]5(C)C(CC[C@]6(C)C5CC=C5[C@@H]7CC(C)(C)CC[C@]7(C(=O)O[C@@H]7O[C@H](CO)[C@@H](O[C@@H]8O[C@@H](C)[C@H](O)[C@@H](O)[C@H]8O)[C@H](O)[C@H]7O)CC[C@]56C)C4(C)C)OC[C@H](O)[C@@H]3O)O[C@H](CO)[C@@H](O)[C@@H]2O)[C@H](O)[C@H](O)[C@H]1O (stereo partly drawn)
-33.4

Param request: max response | system CRL-7250 | item C[C@@H]1CCC/C=C/[C@H]2CC(=O)C[C@@H]2[C@@H](O)/C=C/C(=O)O1
-3.74

Report value: max response, system: CRL-7250, molecule: Cc1ccccc1NC(=O)Nc1ccc(CC(=O)N(C)[C@@H](CC(C)C)C(=O)NCC[C@H](NC(=O)[C@@H]2CCCN2S(=O)(=O)c2cc(Cl)cc(Cl)c2)C(=O)O)cc1
-22.4

Retrieve max response on CRL-7250; query C=C1OC2CC(C(=O)O)C=CC2NC1=O (stereo not drawn)
-1.3

Quote max response with test system CRL-7250 for CC1(c2nc3c(C(N)=O)cccc3[nH]2)CCCN1 (stereo not drawn)
-7.72

Lab note: record max response of C[C@H](C/C=C/C(C)(C)O)[C@H]1CC[C@@]2(C)[C@@H]3[C@@H](O[C@@H]4O[C@H](CO)[C@@H](O)[C@H](O)[C@H]4O)C=C4C(CC[C@H](O)C4(C)C)[C@]3(C=O)CC[C@]12C (stereo partly drawn) tested on CRL-7250.
-2.26

For CRL-7250, give max response of the listed molecule: COc1c2c(c(C)c3c1C(=O)OC3)O[C@@]1(C)CCC3(C(C)(C)O)OC(=O)CC[C@]3(C)[C@H]1C2 (stereo partly drawn)
-2.51

Enter measured max response, system CRL-7250, for the molecule shown: Cc1ccccc1CN1C2=NCCN2C(=O)C2=C1CCN(Cc1ccccc1)C2
-16.8

Report max response from CRL-7250 testing of C=CC(C)(O)C(O)CC1C(C)(O)C(O)C(O)C2C(C)(C)CCCC21C (stereo not drawn)
1.81

Please report max response with CRL-7250 for item CC1(C)CC[C@]2(C(=O)O)CC[C@]3(C)C(=CCC4[C@@]5(C)CC[C@H](O[C@@H]6O[C@H](CO)[C@@H](O)[C@H](O)[C@H]6O[C@@H]6O[C@H](CO)[C@@H](O)[C@H](O)[C@H]6O)[C@@](C)(CO)C5CC[C@]43C)[C@@H]2C1 (stereo partly drawn) .
-6.6

Lab note: record max response of CC(=O)C1=CCC2C3CCC4CC(O[C@@H]5O[C@H](CO)[C@@H](O[C@@H]6O[C@@H](C)[C@H](O)[C@@H](O)[C@H]6O)[C@H](O)[C@H]5O[C@@H]5O[C@H](CO)[C@@H](O)[C@H](O)[C@H]5O)CCC4(C)C3CCC12C (stereo partly drawn) tested on CRL-7250.
-10.3

State max response on CRL-7250. Entry: Cc1cc(C(=O)Nc2cccc(C(=O)Nc3cccc(C(F)(F)F)c3)c2)on1
4.99
